Tgt: ATP-dependent translocase ABCB1 (Homo sapiens, UniProt P08183)
Sequence (P08183 whole entry): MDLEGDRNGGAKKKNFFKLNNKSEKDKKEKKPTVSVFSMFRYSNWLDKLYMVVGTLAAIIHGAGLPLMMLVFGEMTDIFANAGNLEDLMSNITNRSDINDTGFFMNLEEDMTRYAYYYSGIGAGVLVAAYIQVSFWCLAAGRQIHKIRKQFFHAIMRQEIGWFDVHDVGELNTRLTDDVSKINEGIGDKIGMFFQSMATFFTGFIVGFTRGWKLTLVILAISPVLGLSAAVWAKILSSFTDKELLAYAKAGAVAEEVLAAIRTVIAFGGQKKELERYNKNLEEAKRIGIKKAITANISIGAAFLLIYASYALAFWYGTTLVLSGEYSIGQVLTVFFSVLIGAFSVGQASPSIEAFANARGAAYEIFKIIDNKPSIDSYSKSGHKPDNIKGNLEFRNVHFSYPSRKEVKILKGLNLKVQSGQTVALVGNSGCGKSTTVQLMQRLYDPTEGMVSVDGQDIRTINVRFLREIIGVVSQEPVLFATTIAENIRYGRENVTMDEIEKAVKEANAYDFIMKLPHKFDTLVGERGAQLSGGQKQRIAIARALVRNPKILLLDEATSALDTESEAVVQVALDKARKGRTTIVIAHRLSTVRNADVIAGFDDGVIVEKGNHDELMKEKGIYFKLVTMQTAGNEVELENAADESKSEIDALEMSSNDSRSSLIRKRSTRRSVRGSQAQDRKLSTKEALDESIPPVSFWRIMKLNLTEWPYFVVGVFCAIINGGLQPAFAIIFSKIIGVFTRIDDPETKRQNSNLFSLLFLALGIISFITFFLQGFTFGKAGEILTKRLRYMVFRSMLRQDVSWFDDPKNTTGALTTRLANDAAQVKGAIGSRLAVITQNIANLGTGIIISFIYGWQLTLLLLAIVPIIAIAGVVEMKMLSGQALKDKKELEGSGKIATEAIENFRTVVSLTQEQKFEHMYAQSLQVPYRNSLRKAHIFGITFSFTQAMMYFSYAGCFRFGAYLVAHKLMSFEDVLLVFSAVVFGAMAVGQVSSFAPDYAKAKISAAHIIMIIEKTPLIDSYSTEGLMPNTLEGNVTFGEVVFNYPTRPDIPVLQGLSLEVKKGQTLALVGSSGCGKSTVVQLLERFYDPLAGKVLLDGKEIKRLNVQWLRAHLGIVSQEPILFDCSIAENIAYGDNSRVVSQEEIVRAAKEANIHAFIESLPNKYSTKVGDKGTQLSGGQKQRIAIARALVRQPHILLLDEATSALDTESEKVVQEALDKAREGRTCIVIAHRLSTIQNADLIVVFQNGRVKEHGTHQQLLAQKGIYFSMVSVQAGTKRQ
Assay overview: Inhibition of human MDR1 expressed in mouse NIH/3T3 cells assessed as reduction in vinblastine IC50 at 10 uM by MTT assay
Format: cell-based
Condition notes: nih3t3, 10 µM
Metric: fold change (FC)

Lab entry: ATP-dependent translocase ABCB1 (Homo sapiens, UniProt P08183) assay, compound CC(=O)O[C@H]1CC[C@](C)(O)[C@]23OC(C)(C)[C@H]([C@H](OC(=O)/C=C/c4ccccc4)[C@H](OC(=O)c4ccccc4)[C@]12C)[C@H]3OC(=O)CCC(=O)OCCO , fold change (FC) = 145.9

Recorded fold change (FC) for CC(=O)O[C@H]1CC[C@](C)(O)[C@]23OC(C)(C)[C@H]([C@H](OC(=O)/C=C/c4ccccc4)[C@H](OC(=O)c4ccccc4)[C@]12C)[C@H]3OC(=O)CCC(=O)N(C(=O)NC1CCCCC1)C1CCCCC1 on ATP-dependent translocase ABCB1 (Homo sapiens, UniProt P08183) was 90

Bench note, ATP-dependent translocase ABCB1 (Homo sapiens, UniProt P08183): CC(=O)O[C@H]1CC[C@](C)(Cl)[C@]23OC(C)(C)[C@H]([C@H](OC(=O)/C=C/c4ccccc4)[C@H](OC(=O)c4ccccc4)[C@]12C)[C@H]3Cl , fold change (FC) reads 113.9
